Target sequence: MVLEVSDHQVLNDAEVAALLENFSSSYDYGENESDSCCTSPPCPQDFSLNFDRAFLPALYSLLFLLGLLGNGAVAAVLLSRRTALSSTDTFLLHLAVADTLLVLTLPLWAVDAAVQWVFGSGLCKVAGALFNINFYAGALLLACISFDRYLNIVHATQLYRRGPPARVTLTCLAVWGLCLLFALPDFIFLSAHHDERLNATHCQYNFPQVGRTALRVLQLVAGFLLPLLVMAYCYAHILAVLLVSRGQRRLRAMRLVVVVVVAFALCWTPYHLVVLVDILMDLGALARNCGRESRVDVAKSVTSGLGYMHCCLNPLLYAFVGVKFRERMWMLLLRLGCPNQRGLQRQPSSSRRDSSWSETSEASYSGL
Property: IC50

{"columns": ["Molecule", "Value measured"],
 "data": [
  ["FC(F)(F)c1ccc(N2CCC3(CC2)NCCc2c3[nH]c3ccccc23)c(Cl)c1 [Example 5]", "< 500 nM"],
  ["FC(F)(F)c1ccc(N2CCC3(CC2)NCCc2c3[nH]c3ccccc23)c(Br)c1 [Example 13]", "> 1000 nM"],
  ["Fc1cc(C(F)(F)F)ccc1N1CCC2(CC1)NCCc1c2[nH]c2ccccc12 [Example 12]", "> 1000 nM"],
  ["COC(=O)c1ccc(N2CCC3(CC2)NCCc2c3[nH]c3ccccc23)c(Cl)c1 [Example 19]", "> 1000 nM"],
  ["FC(F)(F)c1ccc(N2CCC3(CC2)NCCc2c3[nH]c3ccccc23)c(C(F)(F)F)c1 [Example 11]", "> 1000 nM"],
  ["Clc1cnc(N2CCC3(CC2)NCCc2c3[nH]c3ccccc23)c(Cl)c1 [Example 3]", "> 1000 nM"]
]}
